Reference for the values: patent US20100184663A1

# target.entity: HIV-1 gp41 (JRFL strain) (HIV-1 JRFL)
# measurement.protocol: cell-based or functional assay
Bridge positions count the residues as written; N and C are the ends. Square brackets hold non-standard residues; d marks the D form. Ends that are not written are not given here.
Note to self: use Criterion met only for IC50 (JRFL), pseudovirion entry readings below 20 nM; a reading exactly at 20 nM still gets Criterion not met.

As a guide, the following entries are already answered.
binder: Ac-[dK]G[dA][dC][dD][dY][dP][dE][dW][dQ][dW][dL][dC][dA][dA]G[dK]-NH2 (disulfide 4-13 (inferred)) [K-PIE7-GK]
class: Criterion not met
--
binder: [dH][dP][dC][dD][dY][dP][dE][dW][dQ][dW][dL][dC][dE][dL]G[dK] (disulfide 3-12 (inferred); also: trimer, C-termini joined by PEG5 spacers) [C5C(PIE12)3]
class: Criterion met
--
binder: [dK]G[dA][dC][dD][dY][dP][dE][dW][dQ][dW][dL][dC][dA][dA] (disulfide 4-13 (inferred); also: dimer joined N- to C-terminus by zero length spacer) [N0C(PIE7)2]
class: Criterion not met
--
binder: [dK]G[dA][dC][dD][dY][dP][dE][dW][dQ][dW][dL][dC][dA][dA] (disulfide 4-13 (inferred); also: dimer joined N- to N-terminus by PEG5 spacer) [N5N(PIE7)2]
class: Criterion not met

API: the following record is the query input.
Quick check: IC50 (JRFL), pseudovirion entry of [dH][dP][dC][dD][dY][dP][dE][dW][dQ][dW][dL][dC][dK][dL]G[dK] (disulfide 3-12 (inferred); also: dimer crosslinked via internal Lys with PEG5 linker) [PEG5-(PIE13)2] under 20 nM? Criterion met
